assay: The drug is tested on WLS-077 corresponding to human gut metagenome with ENA study accession number: PRJEB37062 and ENA sample accession number: ERS12561750 for biotransformation under anaerobic condition. The drug concentrations were measured over 9 timepoints collected between 0 and 24 hours of incubation by liquid-chromatography-coupled mass spectrometry (LC–MS); conditions: 2 µM; note: call rule not given here
property label: Bacterial Biotransformation

[
  {
    "compound": "CCc1nn(CCCN2CCN(c3cccc(Cl)c3)CC2)c(=O)n1CCOc1ccccc1",
    "property label": "Bacterial Biotransformation",
    "result": "Compound NOT metabolized"
  },
  {
    "compound": "COc1ccc2[nH]c([S+]([O-])Cc3ncc(C)c(OC)c3C)nc2n1 (centres undefined)",
    "property label": "Bacterial Biotransformation",
    "result": "Compound NOT metabolized"
  },
  {
    "compound": "CN/C(=N/CCSCc1nc[nH]c1C)NC#N",
    "property label": "Bacterial Biotransformation",
    "result": "Compound metabolized"
  },
  {
    "compound": "CCN(CC)CCOCCOC(=O)C1(c2ccccc2)CCCC1.O=C(O)CC(O)(CC(=O)O)C(=O)O [CARBETAPENTANE CITRATE]",
    "property label": "Bacterial Biotransformation",
    "result": "Compound metabolized"
  },
  {
    "compound": "CN1CCOC(c2ccccc2)c2ccccc2C1 (centres undefined)",
    "property label": "Bacterial Biotransformation",
    "result": "Compound NOT metabolized"
  },
  {
    "compound": "CCN(CC)CCOC(=O)C(Cc1cccc2ccccc12)CC1CCCO1.O=C(O)C(=O)O (centres undefined) [NAFRONYL OXALATE]",
    "property label": "Bacterial Biotransformation",
    "result": "Compound metabolized"
  },
  {
    "compound": "Cc1ccc(-c2cc(C(F)(F)F)nn2-c2ccc(S(N)(=O)=O)cc2)cc1",
    "property label": "Bacterial Biotransformation",
    "result": "Compound metabolized"
  },
  {
    "compound": "CN1C(C(=O)Nc2ccccn2)=C(O)c2sccc2S1(=O)=O",
    "property label": "Bacterial Biotransformation",
    "result": "Compound NOT metabolized"
  },
  {
    "compound": "CCOC(=O)[C@H](CCc1ccccc1)N[C@@H](C)C(=O)N1[C@H](C(=O)O)C[C@@H]2CCC[C@@H]21",
    "property label": "Bacterial Biotransformation",
    "result": "Compound metabolized"
  },
  {
    "compound": "CN(C)CC(c1ccc(O)cc1)C1(O)CCCCC1.O=C(O)CCC(=O)O (centres undefined) [DESVENLAFAXINE SUCCINATE]",
    "property label": "Bacterial Biotransformation",
    "result": "Compound NOT metabolized"
  },
  {
    "compound": "NC(=O)N1c2ccccc2CC(=O)c2ccccc21 [OXCARBAZEPINE]",
    "property label": "Bacterial Biotransformation",
    "result": "Compound NOT metabolized"
  },
  {
    "compound": "Cc1ccc(-c2nc3ccc(C)cn3c2CC(=O)N(C)C)cc1",
    "property label": "Bacterial Biotransformation",
    "result": "Compound NOT metabolized"
  },
  {
    "compound": "CC(C(=O)O)c1ccc2c(c1)Cc1cccnc1O2 (centres undefined)",
    "property label": "Bacterial Biotransformation",
    "result": "Compound metabolized"
  },
  {
    "compound": "CCCc1nc(C(C)(C)O)c(C(=O)OCc2oc(=O)oc2C)n1Cc1ccc(-c2ccccc2-c2nnn[nH]2)cc1",
    "property label": "Bacterial Biotransformation",
    "result": "Compound metabolized"
  },
  {
    "compound": "O=C1[C@H](CC[C@H](O)c2ccc(F)cc2)[C@@H](c2ccc(O)cc2)N1c1ccc(F)cc1",
    "property label": "Bacterial Biotransformation",
    "result": "Compound metabolized"
  },
  {
    "compound": "CC(CN(C)C)CN1c2ccccc2CCc2ccccc21.O=C(O)/C=C\\C(=O)O (centres undefined) [TRIMIPRAMINE MALEATE]",
    "property label": "Bacterial Biotransformation",
    "result": "Compound NOT metabolized"
  },
  {
    "compound": "C[C@@H]1CC[C@H]2[C@@H](C)C(=O)O[C@@H]3O[C@@]4(C)CC[C@@H]1[C@]32OO4",
    "property label": "Bacterial Biotransformation",
    "result": "Compound metabolized"
  },
  {
    "compound": "NS(=O)(=O)c1cc2c(cc1Cl)N=C(CSCc1ccccc1)NS2(=O)=O [BENZTHIAZIDE]",
    "property label": "Bacterial Biotransformation",
    "result": "Compound NOT metabolized"
  },
  {
    "compound": "O=C(O)CCc1nc(-c2ccccc2)c(-c2ccccc2)o1",
    "property label": "Bacterial Biotransformation",
    "result": "Compound metabolized"
  },
  {
    "compound": "Br.CN(C)CCCC1(c2ccc(F)cc2)OCc2cc(C#N)ccc21 (centres undefined) [CITALOPRAM HYDROBROMIDE]",
    "property label": "Bacterial Biotransformation",
    "result": "Compound NOT metabolized"
  },
  {
    "compound": "CC(=O)OCC(=O)[C@@]1(O)[C@@H](C)C[C@H]2[C@@H]3CCC4=CC(=O)C=C[C@]4(C)[C@@]3(F)[C@@H](O)C[C@@]21C [BETAMETHASONE ACETATE]",
    "property label": "Bacterial Biotransformation",
    "result": "Compound NOT metabolized"
  },
  {
    "compound": "Clc1ccc(Cn2c(CN3CCCC3)nc3ccccc32)cc1",
    "property label": "Bacterial Biotransformation",
    "result": "Compound NOT metabolized"
  },
  {
    "compound": "CCCC(=O)Nc1ccc(OCC(O)CNC(C)C)c(C(C)=O)c1 (centres undefined)",
    "property label": "Bacterial Biotransformation",
    "result": "Compound NOT metabolized"
  },
  {
    "compound": "CCCC1O[C@@H]2C[C@H]3[C@@H]4CCC5=CC(=O)C=C[C@]5(C)[C@H]4[C@@H](O)C[C@]3(C)[C@]2(C(=O)CO)O1 (some centres undefined) [BUDESONIDE]",
    "property label": "Bacterial Biotransformation",
    "result": "Compound metabolized"
  },
  {
    "compound": "OCCOCCN1CCN(C2=Nc3ccccc3Sc3ccccc32)CC1",
    "property label": "Bacterial Biotransformation",
    "result": "Compound NOT metabolized"
  },
  {
    "compound": "COc1ccc(CCN(C)CCCC(C#N)(c2ccc(OC)c(OC)c2)C(C)C)cc1OC (centres undefined)",
    "property label": "Bacterial Biotransformation",
    "result": "Compound NOT metabolized"
  },
  {
    "compound": "CCc1nc(N)nc(N)c1-c1ccc(Cl)cc1",
    "property label": "Bacterial Biotransformation",
    "result": "Compound NOT metabolized"
  },
  {
    "compound": "Cc1ccc(/C(=C\\CN2CCCC2)c2ccccn2)cc1",
    "property label": "Bacterial Biotransformation",
    "result": "Compound NOT metabolized"
  },
  {
    "compound": "CNS(=O)(=O)Cc1ccc2[nH]cc(CCN(C)C)c2c1.O=C(O)CCC(=O)O [SUMATRIPTAN SUCCINATE]",
    "property label": "Bacterial Biotransformation",
    "result": "Compound NOT metabolized"
  },
  {
    "compound": "CC(C)(C)NC[C@H](O)COc1ccccc1C1CCCC1.CC(C)(C)NC[C@H](O)COc1ccccc1C1CCCC1.O=S(=O)(O)O [PENBUTOLOL SULFATE]",
    "property label": "Bacterial Biotransformation",
    "result": "Compound metabolized"
  },
  {
    "compound": "COc1ccc2c3c1O[C@H]1C[C@@H](O)C=C[C@@]31CCN(C)C2",
    "property label": "Bacterial Biotransformation",
    "result": "Compound NOT metabolized"
  },
  {
    "compound": "COC(=O)C1=C(C)NC(C)=C(C(=O)OC(C)C)C1c1cccc2nonc12 (centres undefined)",
    "property label": "Bacterial Biotransformation",
    "result": "Compound NOT metabolized"
  },
  {
    "compound": "COc1cc2nc(N(C)CCCNC(=O)C3CCCO3)nc(N)c2cc1OC (centres undefined)",
    "property label": "Bacterial Biotransformation",
    "result": "Compound NOT metabolized"
  },
  {
    "compound": "O=C(O)COCCN1CCN(C(c2ccccc2)c2ccc(Cl)cc2)CC1 (centres undefined)",
    "property label": "Bacterial Biotransformation",
    "result": "Compound metabolized"
  }
]

----------
conditions: human gut metagenome, 24 h, 2 µM

[
  {
    "compound": "CC(C)OC(=O)C(C)(C)Oc1ccc(C(=O)c2ccc(Cl)cc2)cc1 [FENOFIBRATE]",
    "Bacterial Biotransformation": "Compound metabolized"
  },
  {
    "compound": "CNC(=C[N+](=O)[O-])NCCSCc1csc(CN(C)C)n1 [NIZATIDINE]",
    "Bacterial Biotransformation": "Compound metabolized"
  },
  {
    "compound": "CC(C)(Oc1ccc(CCNC(=O)c2ccc(Cl)cc2)cc1)C(=O)O [BEZAFIBRATE]",
    "Bacterial Biotransformation": "Compound metabolized"
  },
  {
    "compound": "CN1CCOC(c2ccccc2)c2ccccc2C1 (stereo not drawn) [NEFOPAM]",
    "Bacterial Biotransformation": "Compound metabolized"
  },
  {
    "compound": "CCCCC(=O)N(Cc1ccc(-c2ccccc2-c2nnn[nH]2)cc1)[C@H](C(=O)O)C(C)C",
    "Bacterial Biotransformation": "Compound metabolized"
  },
  {
    "compound": "CCN(CC)CCNC(C(=O)OCCC(C)C)c1ccccc1.Cl.Cl (stereo not drawn)",
    "Bacterial Biotransformation": "Compound metabolized"
  },
  {
    "compound": "O=P(O)(O)O.c1ccc(CN(CC2=NCCN2)c2ccccc2)cc1 [ANTAZOLINE PHOSPHATE]",
    "Bacterial Biotransformation": "Compound NOT metabolized"
  },
  {
    "compound": "COc1ccc2c3c1O[C@H]1C[C@@H](O)C=C[C@@]31CCN(C)C2 [GALANTAMINE]",
    "Bacterial Biotransformation": "Compound NOT metabolized"
  },
  {
    "compound": "COc1c(C)c2c(c(O)c1C/C=C(\\C)CCC(=O)OCCN1CCOCC1)C(=O)OC2 [MYCOPHENOLATE MOFETIL]",
    "Bacterial Biotransformation": "Compound metabolized"
  },
  {
    "compound": "COc1ccccc1OCC(O)CN1CCN(CC(=O)Nc2c(C)cccc2C)CC1 (stereo not drawn) [RANOLAZINE]",
    "Bacterial Biotransformation": "Compound NOT metabolized"
  },
  {
    "compound": "CCOC(=O)[C@H](CCc1ccccc1)N[C@@H](C)C(=O)N1[C@H](C(=O)O)C[C@@H]2CCC[C@@H]21",
    "Bacterial Biotransformation": "Compound metabolized"
  },
  {
    "compound": "CC(O)(CS(=O)(=O)c1ccc(F)cc1)C(=O)Nc1ccc(C#N)c(C(F)(F)F)c1 (stereo not drawn) [BICALUTAMIDE]",
    "Bacterial Biotransformation": "Compound NOT metabolized"
  },
  {
    "compound": "CN(C)CCC=C1c2ccccc2C=Cc2ccccc21 [CYCLOBENZAPRINE]",
    "Bacterial Biotransformation": "Compound metabolized"
  },
  {
    "compound": "CN/C(=N/CCSCc1nc[nH]c1C)NC#N [CIMETIDINE]",
    "Bacterial Biotransformation": "Compound metabolized"
  },
  {
    "compound": "CC(C)(C#N)c1cc(Cn2cncn2)cc(C(C)(C)C#N)c1 [ANASTROZOLE]",
    "Bacterial Biotransformation": "Compound metabolized"
  },
  {
    "compound": "COc1ccc(CCN(C)CCCC(C#N)(c2ccc(OC)c(OC)c2)C(C)C)cc1OC (stereo not drawn)",
    "Bacterial Biotransformation": "Compound metabolized"
  },
  {
    "compound": "CCOC(=O)[C@H](CCc1ccccc1)N[C@@H](C)C(=O)N1[C@H](C(=O)O)C[C@H]2CCCC[C@@H]21 [TRANDOLAPRIL]",
    "Bacterial Biotransformation": "Compound NOT metabolized"
  },
  {
    "compound": "C[C@@H]1C[C@H]2[C@@H]3CCC4=CC(=O)C=C[C@]4(C)[C@@]3(F)[C@@H](O)C[C@]2(C)[C@@]1(O)C(=O)CO [DEXAMETHASONE]",
    "Bacterial Biotransformation": "Compound NOT metabolized"
  }
]
